pKi: −log10 of the molar value.
Literature survey of pKi (system: Tyrosine-protein kinase JAK3 (Homo sapiens, UniProt P52333)).

Prompt: Enter recorded pKi with Tyrosine-protein kinase JAK3 (Homo sapiens, UniProt P52333) for [O-][n+]1ccc(C2Nc3ccccc3-c3ccnc4[nH]cc2c34)cc1 (centres unmarked) here.
Completion: < 5.60

Prompt: Report pKi on Tyrosine-protein kinase JAK3 (Homo sapiens, UniProt P52333) for this entry: `Fc1cccc(Cc2cnoc2-c2c[nH]c3ncccc23)c1F`
Completion: 4.90 to 6.00

Prompt: Enter pKi (test system Tyrosine-protein kinase JAK3 (Homo sapiens, UniProt P52333)) for `O=C(NCC(F)(F)F)[C@H]1CCCN1c1nc(-c2ccc3nccnc3c2)ncc1F`
Completion: 4.30 to 5.00

Prompt: Report pKi from Tyrosine-protein kinase JAK3 (Homo sapiens, UniProt P52333) testing of `COC(=O)c1cccc(Nc2nccc(-c3ccc4c(c3)N(Cc3ccccn3)C(=O)CO4)n2)c1`
Completion: > 5.30

Prompt: # return pKi for `COc1ccccc1Nc1cc(-c2c(N)nn3cc(C)cnc23)ncn1` , test system: Tyrosine-protein kinase JAK3 (Homo sapiens, UniProt P52333)
Completion: 5.30 to 6.30

Prompt: Report pKi on Tyrosine-protein kinase JAK3 (Homo sapiens, UniProt P52333) for this entry: COc1ccc(C2Nc3ccccc3-c3ccnc4[nH]cc2c34)cc1F (centres unmarked)
Completion: 5.60 to 6.60

Prompt: Print Tyrosine-protein kinase JAK3 (Homo sapiens, UniProt P52333) pKi for `CCN(Cc1ccccc1)C(=O)c1ccc(-c2ncnc3[nH]ccc23)o1` .
Completion: > 7.00

Prompt: # return pKi for Cc1cnc2c(-c3cc(N4CCCC(CO)C4)ncn3)c(N)nn2c1 (centres unmarked) , test system: Tyrosine-protein kinase JAK3 (Homo sapiens, UniProt P52333)
Completion: 5.30 to 6.30

###

// compounds with reported Ki on Tyrosine-protein kinase JAK3 (Homo sapiens, UniProt P52333), multi-publication

Prompt: Consider the compound `CCC[C@H](Nc1cc(-c2c(N)nn3cccnc23)nc(S(C)(=O)=O)n1)c1ccc(F)cc1` . State its measured Ki.
Completion: 10 to 100 nM

Prompt: Provide Ki value for the following compound: `CCN(CC)CCCc1cnc2c(-c3ccccn3)c(N)nn2c1`
Completion: > 5000 nM

Prompt: Kindly indicate its recorded Ki. Item: `CC(C)[C@@H](Nc1ccnc(-c2ccc3nccnc3c2)n1)C(=O)NCC(F)(F)F`
Completion: 1000 to 10000 nM

Prompt: Answer with the recorded Ki of `Fc1cccc(-c2cnoc2-c2c[nH]c3ncc(C4CCNCC4)cc23)c1F` only.
Completion: 1000 to 12500 nM

Prompt: Using known records, supply Ki for `C[C@H](c1ccccc1)N(C)c1cc(-c2c(N)nn3cccnc23)ncn1`
Completion: 100 to 500 nM

Prompt: Name the recorded Ki of the compound listed here: `O=C(O)c1cnc(-c2c[nH]c3ncc(Cl)cc23)nc1N1CCC[C@@H]1C(=O)NCC(F)(F)F`
Completion: ≥ 100 nM

Prompt: Specify reported Ki for the compound shown: `CN(C)Cc1cc(Cl)nc(-c2cnc3[nH]cc(-c4oncc4-c4cccc(F)c4F)c3c2)c1`
Completion: 200 to 1000 nM

Prompt: Dear colleague, please send me the reported Ki for CC(CC(=O)Nc1nc(-c2ncnc3[nH]ccc23)cs1)CC(C)(C)C (centres unmarked) when you can.
Completion: 100 to 500 nM

Prompt: For the compound `COC[C@H]1CCCN1C(=O)c1cc(N[C@@H](C)C(=O)NCC(F)(F)F)nc(-c2c[nH]c3ncncc23)n1` , give its measured Ki value.
Completion: 500 to 5000 nM

Prompt: Answer with the recorded Ki for the compound listed here: `C[C@H](Nc1ccnc(-c2c[nH]c3ncncc23)n1)C(=O)NCC(F)(F)F`
Completion: < 500 nM

Prompt: Kindly indicate its recorded Ki. Item: `CC(C)(Nc1ccnc(-c2ccc3nc(N)sc3c2)n1)C(=O)NCC(F)(F)F`
Completion: 1000 to 10000 nM

Prompt: Quickly give me recorded Ki for `CC/C=C\COc1nc(N[C@@H](C)c2ccc(F)cc2)cc(-c2c(N)nn3cccnc23)n1`
Completion: 100 to 500 nM

Prompt: Name the recorded Ki of the compound listed here: `Oc1cnc2[nH]cc(-c3oncc3-c3cccc(Cl)c3Cl)c2c1`
Completion: < 200 nM

Prompt: For the compound Cc1cnc2c(-c3cc(N4CCCC(C(N)=O)C4)ncn3)c(N)nn2c1 (centres unmarked) , report Ki.
Completion: < 500 nM

Prompt: Find the measured Ki of `C[C@H](Nc1cc(-c2c(N)nn3cccnc23)nc(OCC2CCC2)n1)c1ccc(F)cc1` and report it.
Completion: 100 to 500 nM

Prompt: Please give the documented Ki of CCC(O)CNC(=O)C(C)n1cc(-c2ncnc3[nH]ccc23)cn1 (centres unmarked)
Completion: 100 to 500 nM

Prompt: Answer with the recorded Ki of COc1cc(C2Nc3ccccc3-c3ccnc4[nH]cc2c34)ccc1O (centres unmarked) only.
Completion: ≤ 250 nM

Prompt: Give the reported Ki for this compound. `CC(=O)N1[C@H](C)CN(c2cc(-n3cnc(Nc4ccc(NC(=O)c5cccs5)cc4)n3)ccn2)C[C@@H]1C`
Completion: 10 to 1000 nM

Prompt: For CCC(C)n1cc(-c2ncnc3[nH]ccc23)cn1 (centres unmarked) , write its Ki.
Completion: < 100 nM

Prompt: Return the recorded Ki value; entry: `Fc1cccc(-c2cnoc2-c2c[nH]c3ncc(-c4cnc5[nH]ccc5c4)cc23)c1F`
Completion: < 200 nM

Prompt: Give the reported Ki for this compound. `COc1cnc2[nH]cc(-c3nncn3-c3cccc(F)c3F)c2c1`
Completion: 1000 to 12500 nM

Prompt: State its Ki: `CCN(CCC#N)C(=O)c1cc(-c2ncnc3[nH]cc(C)c23)c[nH]1`
Completion: 100 to 500 nM

Prompt: Respond only with Ki recorded for `c1ccc(Nc2ncn(-c3ccnc(N4CCCCC4)c3)n2)cc1`
Completion: 10 to 1000 nM

Prompt: Quote Ki reported for `CCCCN(CC)C(=O)c1cc(-c2ncnc3[nH]cc(C)c23)c[nH]1` please.
Completion: 100 to 500 nM

Prompt: Name the recorded Ki of the compound listed here: `CCC[C@H](Nc1cc(-c2c(N)nn3cccnc23)nc(S(C)(=O)=O)n1)c1ccc(F)cc1F`
Completion: 10 to 100 nM

Prompt: Return Ki for the following compound: `COC(=O)c1cnc2[nH]cc(-c3oncc3-c3cccc(F)c3F)c2c1`
Completion: < 200 nM

###

Kindly find below pKi information for Tyrosine-protein kinase JAK3 (Homo sapiens) taken from the literature.
pKi: −log10 of the molar value.

Prompt: Please report the measured pKi for `CC(C)NC(=O)[C@H]1CCCN1c1nc(-c2c[nH]c3ncc(Cl)cc23)ncc1F` tested on Tyrosine-protein kinase JAK3 (Homo sapiens).
Completion: ≤ 7.00

Prompt: Return reported pKi for target or system Tyrosine-protein kinase JAK3 (Homo sapiens), item `CC(C)OCCOc1nc(N[C@@H](C)c2ccc(F)cc2F)cc(-c2cnn3cccnc23)n1` .
Completion: 7.00 to 8.00

Prompt: Specify the recorded pKi for `CC(C)CCCOc1nc(N[C@@H](C)c2ccc(F)cc2)cc(-c2c(N)nn3cccnc23)n1` , system: Tyrosine-protein kinase JAK3 (Homo sapiens).
Completion: 5.30 to 6.30

Prompt: Tell me its pKi on Tyrosine-protein kinase JAK3 (Homo sapiens): `C[C@H](Nc1cc(-c2cnn3cccnc23)nc(OCCN2CCNCC2)n1)c1ccc(F)cc1F`
Completion: 7.00 to 8.00

Prompt: Jot down pKi (Tyrosine-protein kinase JAK3 (Homo sapiens)) of `CCN(Cc1ccccc1)C(=O)c1cc(-c2ncnc3[nH]ccc23)c[nH]1` .
Completion: > 7.00

Prompt: Provide measured pKi on Tyrosine-protein kinase JAK3 (Homo sapiens) for CC(C)CNC(=O)C(C)n1cc(-c2ncnc3[nH]ccc23)cn1 (stereo not shown) please.
Completion: > 7.00

Prompt: Answer briefly: pKi recorded on Tyrosine-protein kinase JAK3 (Homo sapiens) for `CSc1nc(N[C@@H](C)c2ccc(F)cc2)cc(-c2c(N)nn3cccnc23)n1`
Completion: 7.00 to 8.00

Prompt: State pKi (Tyrosine-protein kinase JAK3 (Homo sapiens)) of `Nc1nn2cccnc2c1-c1cc(O[C@@H](c2ccccc2)C(F)(F)F)ncn1` .
Completion: 5.30 to 6.30

Prompt: Provide pKi, tested on Tyrosine-protein kinase JAK3 (Homo sapiens), for `CN(C)CCNc1ccc(-c2cnc3c(-c4ccccn4)c(N)nn3c2)cn1` .
Completion: 5.30 to 6.30

Prompt: Provide Tyrosine-protein kinase JAK3 (Homo sapiens) pKi reading for `NC(=O)c1ccc(-c2cnc3[nH]cc(-c4oncc4-c4cccc(F)c4F)c3c2)cc1` .
Completion: > 6.70

Prompt: Please report the measured pKi for CCN(CC)C(=O)C(C)n1cc(-c2ncnc3[nH]ccc23)cn1 (stereo not shown) tested on Tyrosine-protein kinase JAK3 (Homo sapiens).
Completion: > 7.00

Prompt: Please report the measured pKi for CCCNC(=O)C(C)n1cc(-c2ncnc3[nH]ccc23)cn1 (stereo not shown) tested on Tyrosine-protein kinase JAK3 (Homo sapiens).
Completion: > 7.00

Prompt: Report measured pKi on Tyrosine-protein kinase JAK3 (Homo sapiens); entry: `COCC(=O)N1CCCN(c2cc(-n3cnc(Nc4ccccc4)n3)ccn2)CC1`
Completion: 6.00 to 8.00

Prompt: Find the measured pKi of CC(C#N)Oc1nc(N[C@@H](C)c2ccc(F)cc2F)cc(-c2cnn3cccnc23)n1 (stereo partly shown) with Tyrosine-protein kinase JAK3 (Homo sapiens) as test system.
Completion: 7.00 to 8.00

Prompt: Param request: pKi | system Tyrosine-protein kinase JAK3 (Homo sapiens) | item `CN(C)C(=O)c1ccc(-c2cnc3[nH]cc(-c4oncc4-c4cccc(F)c4F)c3c2)nc1`
Completion: > 6.70

Prompt: Write down the reported pKi (system: Tyrosine-protein kinase JAK3 (Homo sapiens)) of `N#CCC(=O)N1CC=C(c2cccc(-c3c[nH]c4ncncc34)n2)CC1`
Completion: > 6.30
